Overview of recorded pIC50 for various molecules
system: HeLa; experiment: Cytotoxicity against human HeLa cells assessed as reduction in cell viability incubated for 72 hrs by Celltiter-Glo assay; format: functional, cell-based
pIC50: −log10 of the molar value.

- molecular_string: "C=C1C(=O)C2=C3[C@H]1[C@H]1OC(=O)C(=C)[C@@H]1CC[C@]3(O)CC[C@]21C(=O)[C@H](C[C@@H]2C(=O)C[C@H]3C(=C)CC[C@H]4C(=C)C(=O)O[C@@H]4[C@@H]23)[C@H]2C(=C)CC[C@H]3C(=C)C(=O)O[C@@H]3[C@H]21"
  inequality_symbol: "="
  pIC50: 5.89
- molecular_string: "C=C1C(=O)C2=C3[C@H]1[C@H]1OC(=O)C(CO)=C1CC[C@]3(O)CC[C@]21C(=O)C[C@H]2C(=C)CC[C@H]3C(=C)C(=O)O[C@@H]3[C@H]21"
  inequality_symbol: "<"
  pIC50: 5.00
- molecular_string: "C=C1C(=O)C2=C3[C@H](CC[C@H]4C(=C)C(=O)O[C@@H]4[C@@H]13)CC[C@]21C(=O)C[C@H]2C(=C)CC[C@H]3C(=C)C(=O)O[C@@H]3[C@H]21"
  inequality_symbol: "<"
  pIC50: 5.00
- molecular_string: "C=C1C(=O)O[C@@H]2[C@@H]3C4=C(C(=O)[C@H]3CO)[C@]3(CC[C@]4(O)CC[C@@H]12)C(=O)C[C@H]1C(=C)CC[C@H]2C(=C)C(=O)O[C@@H]2[C@H]13"
  inequality_symbol: "<"
  pIC50: 5.00
- molecular_string: "C=C1C(=O)C2=C3[C@H]1[C@H]1OC(=O)C(=C)[C@@H]1CC[C@]3(O)CC[C@]21C(=O)C[C@H]2C(=C)CC[C@H]3C(=C)C(=O)O[C@@H]3[C@H]21"
  inequality_symbol: "="
  pIC50: 5.55
- molecular_string: "C=C1C(=O)O[C@@H]2[C@@H]3C4=C(C(=O)[C@H]3C)[C@]3(CC[C@@]4(O)CC[C@@H]12)C(=O)C[C@H]1C(=C)CC[C@@H]2[C@H](OC(=O)[C@H]2C)[C@H]13"
  inequality_symbol: "="
  pIC50: 5.19

###

tested on: C6; assay: Cytotoxicity against rat C6 cells assessed as reduction in cell viability incubated for 72 hrs by Celltiter-Glo assay; format: functional, cell-based; conditions: C6, 72 h

- molecular_string: "C=C1C(=O)C2=C3[C@H]1[C@H]1OC(=O)C(=C)[C@@H]1CC[C@]3(O)CC[C@]21C(=O)C[C@H]2C(=C)CC[C@H]3C(=C)C(=O)O[C@@H]3[C@H]21"
  inequality_symbol: "="
  IC50 (µM): 1.2
- molecular_string: "C=C1C(=O)O[C@@H]2[C@@H]3[C@@H](C[C@@]4(O)[C@]3(O)CC[C@]43C(=O)C[C@H]4C(=C)CC[C@H]5C(=C)C(=O)O[C@@H]5[C@H]43)C(=C)CC[C@@H]12"
  inequality_symbol: "="
  IC50 (µM): 4.3
- molecular_string: "C=C1C(=O)C2=C3[C@H]1[C@H]1OC(=O)C(=C)[C@@H]1CC[C@@]3(O)CC[C@]21C(=O)C[C@H]2C(=C)CC[C@H]3C(=C)C(=O)O[C@@H]3[C@H]21"
  inequality_symbol: ">"
  IC50 (µM): 10
- molecular_string: "C=C1C(=O)C2=C3[C@H]1[C@H]1OC(=O)C(CO)=C1CC[C@]3(O)CC[C@]21C(=O)C[C@H]2C(=C)CC[C@H]3C(=C)C(=O)O[C@@H]3[C@H]21"
  inequality_symbol: "="
  IC50 (µM): 9.9
- molecular_string: "C=C1C(=O)O[C@@H]2[C@@H]3C4=C(C(=O)[C@H]3C)[C@]3(CC[C@@]4(O)CC[C@@H]12)C(=O)C[C@H]1C(=C)CC[C@@H]2[C@H](OC(=O)[C@H]2C)[C@H]13"
  inequality_symbol: "="
  IC50 (µM): 3.1
- molecular_string: "C=C1C(=O)C2=C3[C@H](CC[C@H]4C(=C)C(=O)O[C@@H]4[C@@H]13)CC[C@]21C(=O)C[C@H]2C(=C)CC[C@H]3C(=C)C(=O)O[C@@H]3[C@H]21"
  inequality_symbol: ">"
  IC50 (µM): 10
